Measured values drawn from paper doi:10.1101/2021.10.01.462762 for this set.

- MEASURED_TARGET: PdeL;Cra (Escherichia coli;Escherichia coli, UniProt P21514;P0ACP1 1-362;1-334, |)
- Sequence (P21514 whole entry, chain 1 of 2): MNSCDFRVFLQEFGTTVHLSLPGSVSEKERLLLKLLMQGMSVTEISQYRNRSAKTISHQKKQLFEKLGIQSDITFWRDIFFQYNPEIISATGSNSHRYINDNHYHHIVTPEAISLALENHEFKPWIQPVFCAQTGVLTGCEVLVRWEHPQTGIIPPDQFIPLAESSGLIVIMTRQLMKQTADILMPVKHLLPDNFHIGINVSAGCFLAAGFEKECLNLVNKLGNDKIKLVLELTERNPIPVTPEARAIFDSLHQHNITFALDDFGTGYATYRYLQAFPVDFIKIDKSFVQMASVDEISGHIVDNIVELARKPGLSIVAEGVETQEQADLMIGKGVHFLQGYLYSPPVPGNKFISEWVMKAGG
- Sequence (P0ACP1 whole entry, chain 2 of 2): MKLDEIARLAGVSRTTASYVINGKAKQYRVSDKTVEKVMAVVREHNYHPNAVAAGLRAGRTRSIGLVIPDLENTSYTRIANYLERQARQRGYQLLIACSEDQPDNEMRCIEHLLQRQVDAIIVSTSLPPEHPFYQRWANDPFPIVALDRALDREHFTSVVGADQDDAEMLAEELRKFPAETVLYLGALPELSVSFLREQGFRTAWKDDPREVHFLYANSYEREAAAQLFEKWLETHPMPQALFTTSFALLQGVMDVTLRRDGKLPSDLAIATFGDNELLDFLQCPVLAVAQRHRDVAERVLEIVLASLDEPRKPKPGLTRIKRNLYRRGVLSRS
- MEASUREMENT_NOTES: EMSA
READOUT_KIND: Kd
Answer as a quantity: numeral, then unit.

Entry CB CDB oligo (4695/4696) (dsDNA) DNA 1: TGCTGAATGGATTCAGTCTTAATGAGTGGG DNA 2: CCCACTCATTAAGACTGAATCCATTCAGCA , Kd reported as 76 nM
